System: Enterococcus sp.
TEST_DESCRIPTION: In vitro antibacterial evaluation: minimum inhibitory concentration (MIC), broth dilution method
Assay type: cell-based
PROTOCOL_CONDITIONS: strain GC 4553
Measured MIC Enterococcus faecalis (GC 4553), listed per entry.

| COMPOUND | VALUE_COMPARATOR | MIC Enterococcus faecalis (GC 4553), µg/mL |
| --- | --- | --- |
| CC(c1ccccc1)C1NC(=O)CNC(=O)C(CO)NC(=O)C(C(O)C2CNC(=N)N2C2OC(CO)C(O)C(O)C2O)NC(=O)C(C(O)C2CNC(=N)N2)NC(=O)C(Cc2ccc(OC3OC(CO)C(OC4OC5COC(c6ccc7c(c6)OCCO7)OC5C(O)C4O)C(O)C3O)cc2)NC1=O (centres unmarked) | = | 8 |
| COc1cccc(C2OC3C(OC4C(CO)OC(Oc5ccc(CC6NC(=O)C(C(C)c7ccccc7)NC(=O)CNC(=O)C(CO)NC(=O)C(C(O)C7CNC(=N)N7C7OC(CO)C(O)C(O)C7O)NC(=O)C(C(O)C7CNC(=N)N7)NC6=O)cc5)C(O)C4O)OC(CO)C(O)C3O2)c1 (single isomer, unassigned) [Example 137a] | > | 64 |
| COc1cc(OC)cc(C2OC3C(OC4C(CO)OC(Oc5ccc(CC6NC(=O)C(C(C)c7ccccc7)NC(=O)CNC(=O)C(CO)NC(=O)C(C(O)C7CNC(=N)N7C7OC(CO)C(O)C(O)C7O)NC(=O)C(C(O)C7CNC(=N)N7)NC6=O)cc5)C(O)C4O)OC(CO)C(O)C3O2)c1 (centres unmarked) [Example 150a] | > | 64 |
| COc1cccc(C2OC3C(OC4C(CO)OC(Oc5ccc(CC6NC(=O)C(C(C)c7ccccc7)NC(=O)CNC(=O)C(CO)NC(=O)C(C(O)C7CNC(=N)N7C7OC(CO)C(O)C(O)C7O)NC(=O)C(C(O)C7CNC(=N)N7)NC6=O)cc5)C(O)C4O)OC(CO)C(O)C3O2)c1 (single isomer, unassigned) [Example 137b] | = | 32 |
| CC(c1ccccc1)C1NC(=O)CNC(=O)C(CO)NC(=O)C(C(O)C2CNC(=N)N2C2OC(CO)C(O)C(O)C2O)NC(=O)C(C(O)C2CNC(=N)N2)NC(=O)C(Cc2ccc(OC3OC(CO)C(OC4OC5COC(c6ccc(-c7ccsc7)cc6)OC5C(O)C4O)C(O)C3O)cc2)NC1=O (centres unmarked) | = | 8 |
| CCOc1cc(C2OCC3OC(OC4C(CO)OC(Oc5ccc(CC6NC(=O)C(C(C)c7ccccc7)NC(=O)CNC(=O)C(CO)NC(=O)C(C(O)C7CNC(=N)N7C7OC(CO)C(O)C(O)C7O)NC(=O)C(C(O)C7CNC(=N)N7)NC6=O)cc5)C(O)C4O)C(O)C(O)C3O2)ccc1OC (centres unmarked) | = | 64 |
| CSc1ccc(C2OCC3OC(OC4C(CO)OC(Oc5ccc(CC6NC(=O)C(C(C)c7ccccc7)NC(=O)CNC(=O)C(CO)NC(=O)C(C(O)C7CNC(=N)N7C7OC(CO)C(O)C(O)C7O)NC(=O)C(C(O)C7CNC(=N)N7)NC6=O)cc5)C(O)C4O)C(O)C(O)C3O2)cc1 (centres unmarked) | = | 4 |
| CC(c1ccccc1)C1NC(=O)CNC(=O)C(CO)NC(=O)C(C(O)C2CNC(=N)N2C2OC(CO)C(O)C(O)C2O)NC(=O)C(C(O)C2CNC(=N)N2)NC(=O)C(Cc2ccc(OC3OC(COC(=O)C(c4ccccc4)c4ccccc4)C(OC4OC(CO)C(O)C(O)C4O)C(O)C3O)cc2)NC1=O (centres unmarked) [Example 96b] | = | 8 |
